Target: EP2 (Homo sapiens (Human), UniProt P43116)
Sequence (P43116 whole entry): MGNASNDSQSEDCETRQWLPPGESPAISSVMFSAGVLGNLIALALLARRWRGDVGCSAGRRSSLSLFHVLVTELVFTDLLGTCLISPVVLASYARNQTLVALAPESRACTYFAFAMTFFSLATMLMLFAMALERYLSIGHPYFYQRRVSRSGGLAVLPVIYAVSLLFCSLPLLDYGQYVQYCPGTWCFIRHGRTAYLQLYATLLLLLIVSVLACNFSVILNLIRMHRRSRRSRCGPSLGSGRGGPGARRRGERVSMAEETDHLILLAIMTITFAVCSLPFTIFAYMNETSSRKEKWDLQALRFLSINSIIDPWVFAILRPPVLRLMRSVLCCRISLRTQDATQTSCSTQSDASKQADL
Experiment: hEP2 cAMP assay (SF295 glioblastoma cells, HTRF cAMP)
Conditions: antagonistic activity
pIC50: −log10 of the molar value.
readoutName: pIC50

Answered examples (5):
In [3]: df
Out[3]:
                                querysmiles  measvalue
0  CSc1cc(-c2cc(NCCc3ccc4sccc4c3)ncn2)ccc1C(=O)O       7.18
1  CSc1cc(-c2cc(NCCc3c(C#N)cc4ccccc4c3C)ncn2)ccc1C(=O)O       6.80
2  CCOc1cc(-c2cc(NCCc3c(OC)cc4c(c3C)OCCO4)ncn2)ccc1C(=O)O       8.30
3  CCOc1cc(-c2cc(NCCc3ccc4c(c3)OCCO4)ncn2)sc1C(=O)O       6.79
4  COc1cc2c(cc1CCNc1cc(-c3ccc(CC(=O)O)c(SC)c3)ncn1)OCCO2       6.75

a: CCOc1cc(-c2cc(NCCc3cc(F)c4ncccc4c3F)ncn2)sc1C(=O)O
b: CCOc1cc(-c2cc(NCCc3c(F)cc4ccccc4c3F)ncn2)ccc1CC(=O)O
Problem: Which has the smaller recorded pIC50, a or b ? Provide the label of your selected option as the answer.
Solution: b
(b: 6.02, a: 6.35)

I: CSc1cc(-c2cc(NCCc3cc(F)c4c(c3)OCCO4)ncn2)ccc1C(=O)O
II: CCc1cc(-c2cc(NCCc3cc(F)c4sccc4c3)ncn2)sc1C(=O)O
Problem: Lab notebook, comparison: I versus II , higher pIC50 goes to which? Provide the label of your selected option as the answer.
Solution: II
(II: 6.60, I: 6.31)
